src = the supplement of paper PMC10849652

Target: ZFP91 (UniProt Q96JP5)
Sequence (Q96JP5 whole entry, looked up): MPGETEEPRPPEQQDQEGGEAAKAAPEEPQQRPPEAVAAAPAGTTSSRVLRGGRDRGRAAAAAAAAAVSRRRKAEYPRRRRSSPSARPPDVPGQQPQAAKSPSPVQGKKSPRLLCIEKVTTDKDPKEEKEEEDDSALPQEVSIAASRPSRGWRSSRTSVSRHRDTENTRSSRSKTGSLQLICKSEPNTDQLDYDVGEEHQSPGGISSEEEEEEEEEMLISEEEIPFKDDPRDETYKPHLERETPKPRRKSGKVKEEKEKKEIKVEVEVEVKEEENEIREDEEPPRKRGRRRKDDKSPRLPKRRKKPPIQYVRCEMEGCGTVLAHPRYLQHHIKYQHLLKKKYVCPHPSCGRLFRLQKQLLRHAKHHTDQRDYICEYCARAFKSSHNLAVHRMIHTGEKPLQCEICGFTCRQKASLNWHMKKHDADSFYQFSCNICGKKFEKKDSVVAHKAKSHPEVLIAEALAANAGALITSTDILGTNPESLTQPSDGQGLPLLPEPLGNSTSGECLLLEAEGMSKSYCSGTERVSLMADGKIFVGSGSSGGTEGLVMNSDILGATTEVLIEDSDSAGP
Assay: log2 fold change, soluble protein after heating vs DMSO (PISA); higher = thermal stabilisation; K562 cells, 10 uM, 30 min; active = over 0.2 and 3.5 SD of the protein, either way, in both replicates (recomputed)
Of roughly 7,900 targets only a part is listed; those with a hit were picked by preference. About 0.6% of all pairs of compound and target were hits.
Choose one outcome from this list and give only that: Y (active), N (inactive)

Look over these answered cases.
>>> class("O=C(CCCCCCNC(=O)c1cnc(N(c2ccccc2)c2ccccc2Cl)nc1)NO [citarinostat]")
"N"
>>> class("Cc1ccc2c(=O)c3ccccc3n(CCCN)c2c1C")
"Y"
>>> class("Cc1ccc(NC(=O)c2ccc(CN3CC[C@H](N(C)C)C3)c(C(F)(F)F)c2)cc1Nc1nccc(-c2cncnc2)n1 [bafetinib]")
"N"
>>> class("NC1(Cc2ccc(Cl)cc2)CCN(c2ncnc3[nH]ccc23)CC1")
"N"
>>> class("CN1CCN(c2nc(C3=C(c4c[nH]c5ccccc45)C(=O)NC3=O)c3ccccc3n2)CC1 [sotrastaurin]")
"N"

Q) For this compound, state the assay outcome: O=C1NC(=NCc2cccs2)S/C1=C\c1ccc2ncccc2c1
A) N

Q) Next entry: Cc1ccc(-n2nc(C(C)(C)C)cc2NC(=O)Nc2ccc(OCCN3CCOCC3)c3ccccc23)cc1 [doramapimod]
A) N

Q) Same read-out for CNC(=O)c1ccccc1Nc1nc(Nc2ccc(N3CCOCC3)cc2OC)ncc1Cl ?
A) N

Q) Query NC(=O)Nc1cc(-c2cccc(F)c2)sc1C(=O)N[C@H]1CCCNC1 next
A) N

Q) Same question for CN(C)CC(=O)Nc1ccc2[nH]c(=O)c3ccccc3c2c1 please.
A) N

Q) Now give it for Cc1ncc(-c2ccnc(Nc3ccc(S(C)(=O)=O)cc3)n2)n1C(C)C too.
A) N

Q) Now try Nc1ccccc1NC(=O)c1ccc(CNC(=O)OCc2cccnc2)cc1 [entinostat] .
A) N

Q) Now give it for CCCS(=O)(=O)Nc1ccc(F)c(C(=O)c2c[nH]c3ncc(Cl)cc23)c1F too.
A) N

Q) Field entry: COc1cccc2cc(-c3nc([C@H]4CC[C@H](C(=O)O)CC4)n4ncnc(N)c34)[nH]c12
A) N

###

Target: YIPF4 (UniProt Q9BSR8)
Sequence (Q9BSR8 whole entry, looked up): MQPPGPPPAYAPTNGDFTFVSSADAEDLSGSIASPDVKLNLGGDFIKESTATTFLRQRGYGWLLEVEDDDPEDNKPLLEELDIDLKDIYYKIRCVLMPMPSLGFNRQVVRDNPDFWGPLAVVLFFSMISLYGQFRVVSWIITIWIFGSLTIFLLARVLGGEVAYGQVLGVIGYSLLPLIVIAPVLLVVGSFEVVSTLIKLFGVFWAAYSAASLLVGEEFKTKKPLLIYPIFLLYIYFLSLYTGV
Assay: log2 fold change, soluble protein after heating vs DMSO (PISA); higher = thermal stabilisation; K562 cells, 10 uM, 30 min; active = over 0.2 and 3.5 SD of the protein, either way, in both replicates (recomputed)
Targets with a hit are over-represented here; the source holds about 7,900 in all. About 0.6% of all pairs of compound and target were hits.
Label Criterion met for high-side log2 fold change (at or above -0.03) and Criterion not met for low-side log2 fold change (below it).

Below, 3 compounds whose answers are already recorded.
>>> class("Cc1nc(Nc2ncc(C(=O)Nc3c(C)cccc3Cl)s2)cc(N2CCN(CCO)CC2)n1")
"Criterion met"
>>> class("O=C1NC(=O)C(c2cnc3ccccn23)=C1c1cn2c3c(cc(F)cc13)CN(C(=O)N1CCCCC1)CC2")
"Criterion not met"
>>> class("Nc1ccccc1NC(=O)c1ccc(CNC(=O)OCc2cccnc2)cc1")
"Criterion not met"

Q) Please tell me: is the compound CC(C)N(C[C@H]1O[C@@H](n2cnc3c(N)ncnc32)[C@H](O)[C@@H]1O)[C@H]1C[C@@H](CCc2nc3cc(C(C)(C)C)ccc3[nH]2)C1 at or over -0.03 in terms of log2 fold change?
A) Criterion not met
